Each item that follows carries a reported pIC50.
molecular target: Recombinant human JAK1 catalytic domain (Homo sapiens (Human), UniProt P23458); test: JAK1 inhibition assay; format: biochemical; settings: semi-quantitative score
Sequence (P23458 850-1154): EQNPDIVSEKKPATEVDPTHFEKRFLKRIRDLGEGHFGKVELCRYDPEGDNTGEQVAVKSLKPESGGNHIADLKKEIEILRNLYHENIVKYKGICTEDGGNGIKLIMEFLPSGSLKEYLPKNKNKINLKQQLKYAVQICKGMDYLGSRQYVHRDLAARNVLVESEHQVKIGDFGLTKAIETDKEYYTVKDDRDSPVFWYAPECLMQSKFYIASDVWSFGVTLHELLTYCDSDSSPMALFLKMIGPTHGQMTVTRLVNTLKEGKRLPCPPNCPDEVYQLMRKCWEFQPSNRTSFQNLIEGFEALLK
pIC50: −log10 of the molar value.
Measured property: pIC50

1. O=C(Nc1ccc(-c2cccc3nc(NC(=O)C4CC4)nn23)cn1)c1ccccc1 : 6.00 to 6.30
2. O=C(Nc1nc2cccc(-c3ccnc(N4CCC(CCN5CCOCC5)CC4)c3)n2n1)C1CC1 : < 6.00
3. CN(C)CC1CN(C(=O)c2ccc(-c3cccc4nc(NC(=O)C5CC5)nn34)cc2)C1 : 6.30 to 7.00
4. O=C(Nc1nc2cccc(-c3ccc(C(=O)N4CCCC(c5ccccc5)C4)cc3)n2n1)C1CC1 (stereo not drawn) : > 7.00
5. O=C(Nc1nc2cccc(-c3ccc(NCc4ccccc4)nc3)n2n1)C1CC1 : > 7.00
6. O=C(Nc1nc2cccc(-c3ccc(CC(=O)N4CC(F)(F)C4)cc3)n2n1)C1CC1 : > 7.00

* * *

target: Recombinant human JAK2 catalytic domain (Homo sapiens (Human)); experiment: JAK2 inhibition assay; format: biochemical; details: semi-quantitative score
Sequence (O60674 808-1132): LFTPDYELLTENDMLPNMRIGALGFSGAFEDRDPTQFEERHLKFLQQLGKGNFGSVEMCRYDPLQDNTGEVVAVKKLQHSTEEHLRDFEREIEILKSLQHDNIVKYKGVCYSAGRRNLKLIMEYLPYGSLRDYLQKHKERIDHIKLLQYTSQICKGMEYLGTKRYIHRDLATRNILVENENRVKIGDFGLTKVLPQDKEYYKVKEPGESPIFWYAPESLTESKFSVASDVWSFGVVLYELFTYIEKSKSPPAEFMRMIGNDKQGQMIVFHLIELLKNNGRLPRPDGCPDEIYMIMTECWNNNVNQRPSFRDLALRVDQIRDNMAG
Each item that follows carries a reported IC50.
Measured property: IC50

1. O=C(NCCCc1ccccc1)c1ccc(-c2cccc3nc(NC(=O)C4CC4)nn23)cc1 [Compound 114] : 101 to 500 nM
2. O=C(Nc1nc2cccc(-c3ccc(C(=O)N4CCC(O)CC4)cc3)n2n1)C1CC1 [Compound 209] : 101 to 500 nM
3. O=C(Nc1nc2cccc(-c3ccc(C(=O)N4CCC(COc5cccnc5)CC4)cc3)n2n1)C1CC1 [Compound 292] : 101 to 500 nM
4. CCCc1ccc(S(=O)(=O)Nc2ccc(-c3cccc4nc(NC(=O)C5CC5)nn34)cc2)cc1 [Compound 85] : 101 to 500 nM
5. CN1CCN(c2ccc(NCc3ccc(-c4cccc5nc(NC(=O)C6CC6)nn45)cc3)cn2)CC1 [Compound 235] : 101 to 500 nM
6. O=C(Nc1nc2cccc(-c3ccc(NS(=O)(=O)c4ccc(F)cc4)cc3)n2n1)C1CC1 [Compound 33] : < 100 nM
7. Cc1ccc(NCc2ccc(-c3cccc4nc(NC(=O)C5CC5)nn34)cc2)c(F)n1 [Compound 256] : 101 to 500 nM
8. O=C(Nc1nc2cccc(-c3ccc(CC(=O)N4CCCCC4)cc3)n2n1)C1CC1 [Compound 266] : 101 to 500 nM
9. O=C(Nc1nc2cccc(-c3ccc(COc4ccccc4)cc3)n2n1)C1CC1 [Compound 238] : < 100 nM
10. Cc1cc(COc2ccc(-c3cccc4nc(NC(=O)C5CC5)nn34)cc2)nn1C [Compound 62] : < 100 nM
11. N#CCc1ccc(NCc2ccc(-c3cccc4nc(NC(=O)C5CC5)nn34)cc2)cc1 [Compound 224] : < 100 nM
12. CC(=O)Nc1ccc(COc2ccc(-c3cccc4nc(NC(=O)C5CC5)nn34)cc2)cc1 [Compound 92] : 101 to 500 nM
13. O=C(Nc1nc2cccc(-c3ccc(CN4CCCC4)cc3)n2n1)C1CC1 [Compound 260] : 101 to 500 nM
14. O=C(Nc1nc2cccc(-c3ccc(NS(=O)(=O)CCc4cccc(F)c4)cc3)n2n1)C1CC1 [Compound 88] : 101 to 500 nM
15. CCN(CC)C(=O)C1CCCN(C(=O)c2ccc(-c3cccc4nc(NC(=O)C5CC5)nn34)cc2)C1 (centres unmarked) [Compound 295] : > 1000 nM
16. N#Cc1ccc(OC2CN(Cc3ccc(-c4cccc5nc(NC(=O)C6CC6)nn45)cc3)C2)cc1 [Compound 278] : 101 to 500 nM
17. O=C(Nc1nc2cccc(-c3ccc(N4CCCCC4)nc3)n2n1)C1CC1 [Compound 3] : > 1000 nM
18. Cn1ccc(COc2ccc(-c3cccc4nc(NC(=O)C5CC5)nn34)cc2)n1 [Compound 48] : 101 to 500 nM
19. O=C(Nc1nc2cccc(-c3ccc(C(=O)N4CCC(O)(Cc5ccccc5)CC4)cc3)n2n1)C1CC1 [Compound 156] : < 100 nM
20. O=C(Nc1nc2cccc(-c3ccc4c(ccn4Cc4ccccc4)c3)n2n1)C1CC1 [Compound 121] : < 100 nM
21. O=C(Nc1nc2cccc(-c3ccc(OCCOc4ccc(F)cc4)cc3)n2n1)C1CC1 [Compound 115] : 101 to 500 nM
22. O=C(Nc1nc2cccc(-c3cccc(OCc4ccccc4)c3)n2n1)C1CC1 [Compound 14] : 501 to 1000 nM
23. CC(C)(C)OC(=O)NC1CCN(Cc2ccc(-c3cccc4nc(NC(=O)C5CC5)nn34)cc2)CC1 [Compound 310] : > 1000 nM
24. CC(C)(C)C1CCN(C(=O)c2ccc(-c3cccc4nc(NC(=O)C5CC5)nn34)cc2)CC1 [Compound 27] : 501 to 1000 nM
25. CN1CCN(c2ccc(NC(=O)c3ccc(-c4cccc5nc(NC(=O)C6CC6)nn45)cc3)cn2)CC1 [Compound 205] : 501 to 1000 nM
26. O=C(Nc1nc2cccc(-c3ccc(S(=O)(=O)NC4CC4)cc3)n2n1)C1CC1 [Compound 13] : < 100 nM

The measured values listed here are drawn from patent US10206907B2.
